- systemTested: human ACC2 (Homo sapiens)
- Construct: made in house; host or cells: insect cells (baculoviral expression system)
- Sequence (O00763 129-2458 limits assumed): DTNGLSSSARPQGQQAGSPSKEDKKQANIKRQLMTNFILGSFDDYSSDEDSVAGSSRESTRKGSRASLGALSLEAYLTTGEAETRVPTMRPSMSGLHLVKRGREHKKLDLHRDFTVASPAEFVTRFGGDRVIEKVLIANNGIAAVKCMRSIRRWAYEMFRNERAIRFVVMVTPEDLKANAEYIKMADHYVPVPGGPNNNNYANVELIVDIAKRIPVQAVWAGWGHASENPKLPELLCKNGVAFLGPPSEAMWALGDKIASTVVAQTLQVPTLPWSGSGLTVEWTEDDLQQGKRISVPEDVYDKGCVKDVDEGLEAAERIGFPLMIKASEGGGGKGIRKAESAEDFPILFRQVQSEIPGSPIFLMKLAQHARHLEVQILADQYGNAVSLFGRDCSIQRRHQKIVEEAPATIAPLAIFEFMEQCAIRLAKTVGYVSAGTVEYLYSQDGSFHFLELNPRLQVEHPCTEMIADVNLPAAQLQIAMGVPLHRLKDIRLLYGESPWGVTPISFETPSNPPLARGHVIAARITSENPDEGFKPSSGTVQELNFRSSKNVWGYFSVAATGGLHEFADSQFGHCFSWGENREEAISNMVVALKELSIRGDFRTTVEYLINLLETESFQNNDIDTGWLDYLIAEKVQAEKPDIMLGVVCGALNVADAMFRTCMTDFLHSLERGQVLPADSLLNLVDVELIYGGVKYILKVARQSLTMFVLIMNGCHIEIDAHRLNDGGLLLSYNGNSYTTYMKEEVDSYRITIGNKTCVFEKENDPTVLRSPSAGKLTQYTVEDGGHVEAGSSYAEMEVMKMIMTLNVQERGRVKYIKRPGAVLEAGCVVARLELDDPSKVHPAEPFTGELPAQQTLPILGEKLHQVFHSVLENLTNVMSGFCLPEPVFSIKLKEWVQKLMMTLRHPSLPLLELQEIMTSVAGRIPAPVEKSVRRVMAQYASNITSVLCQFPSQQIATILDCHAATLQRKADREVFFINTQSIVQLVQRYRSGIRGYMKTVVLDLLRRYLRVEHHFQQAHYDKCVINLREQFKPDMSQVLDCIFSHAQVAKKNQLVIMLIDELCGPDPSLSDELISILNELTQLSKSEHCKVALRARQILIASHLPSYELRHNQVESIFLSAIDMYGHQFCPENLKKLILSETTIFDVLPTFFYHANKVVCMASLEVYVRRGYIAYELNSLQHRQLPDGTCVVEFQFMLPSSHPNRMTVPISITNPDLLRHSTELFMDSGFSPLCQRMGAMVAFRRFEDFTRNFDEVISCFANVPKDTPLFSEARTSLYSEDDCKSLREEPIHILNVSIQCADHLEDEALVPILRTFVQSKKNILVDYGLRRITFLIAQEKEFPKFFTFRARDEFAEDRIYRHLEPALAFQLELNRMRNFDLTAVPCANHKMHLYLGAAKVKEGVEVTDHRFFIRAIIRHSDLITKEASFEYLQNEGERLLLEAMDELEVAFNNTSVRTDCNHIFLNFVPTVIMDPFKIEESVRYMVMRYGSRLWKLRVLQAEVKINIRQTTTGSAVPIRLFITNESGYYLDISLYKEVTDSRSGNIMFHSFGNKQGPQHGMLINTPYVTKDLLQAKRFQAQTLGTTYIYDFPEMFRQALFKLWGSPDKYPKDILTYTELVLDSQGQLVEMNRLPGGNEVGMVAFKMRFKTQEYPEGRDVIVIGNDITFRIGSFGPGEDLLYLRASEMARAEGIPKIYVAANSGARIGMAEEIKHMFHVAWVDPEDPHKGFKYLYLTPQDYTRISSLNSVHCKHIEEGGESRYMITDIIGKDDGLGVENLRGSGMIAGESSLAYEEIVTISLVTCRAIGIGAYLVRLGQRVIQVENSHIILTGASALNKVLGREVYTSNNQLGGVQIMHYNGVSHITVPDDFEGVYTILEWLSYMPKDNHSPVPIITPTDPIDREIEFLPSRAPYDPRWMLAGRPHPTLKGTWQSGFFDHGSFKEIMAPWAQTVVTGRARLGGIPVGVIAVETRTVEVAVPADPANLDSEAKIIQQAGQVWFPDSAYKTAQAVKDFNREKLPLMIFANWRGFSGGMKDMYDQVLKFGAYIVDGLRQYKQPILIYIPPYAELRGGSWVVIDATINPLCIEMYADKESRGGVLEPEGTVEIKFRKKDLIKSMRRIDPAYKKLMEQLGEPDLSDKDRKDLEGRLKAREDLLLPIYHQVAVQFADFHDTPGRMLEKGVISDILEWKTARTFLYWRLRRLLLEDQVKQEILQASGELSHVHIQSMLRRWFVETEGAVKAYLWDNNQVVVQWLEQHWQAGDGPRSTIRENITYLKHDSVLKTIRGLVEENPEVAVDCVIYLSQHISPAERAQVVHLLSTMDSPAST
- experiment: ACC2 assay, spectrophotometric 384 well assay (NADH-linked, coupled lactate dehydrogenase/pyruvate kinase)
- Assay type: biochemical
- testSettings: ACC2 assay; human ACC2 construct lacking 128 N-terminal amino acids; 25° C., 340 nm, 15 minutes; read-out: IC50
- Experimental: Spectrophotometric 384 Well Assay Malonyl CoA formation by acetyl CoA carboxylases is stoichometrically linked to the consumption of ATP. ACC2 activity is measured in a NADH-linked kinetic method measuring ADP generated during the ACC reaction using a coupled lactate dehydrogenase/pyruvate kinase reaction. For biological testing, a human ACC2 construct which lacks the 128 amino acids at the N-terminus for increased solubility (nt 385-6966 in Genbank entry AJ575592) is cloned. […]
Listed here are compounds together with their documented log10(IC50).
Form field - Quantity: IC50; Unit: nM; Scale: log10

[[record]]
compound = "CCOc1ccc(OC2CN(c3ccc([C@H](C)NC(C)=O)cc3)C2)c(F)c1"
testvalue = 2.08

[[record]]
compound = "CCOc1ccc(OC2CN(c3ccc([C@H](C)NC(=O)C(C)F)cc3)C2)cc1 (some centres unmarked)"
testvalue = 2.51

[[record]]
compound = "CC(=O)N[C@@H](C)c1ccc(N2CC(Oc3ccnc(N4CCOCC4)n3)C2)cc1"
testvalue = 2.54

[[record]]
compound = "CCOc1ccc(OC2CN(c3ccc([C@H](C)NC(=O)C(C)C#N)cc3)C2)cc1 (some centres unmarked)"
testvalue = 2.43

[[record]]
compound = "CCOc1cccc(OC2CN(c3ccc([C@H](C)NC(C)=O)cc3)C2)n1"
testvalue = 2.58

[[record]]
compound = "CCOc1ccc(OC2CN(c3ccc([C@H](C)NC(=O)c4sc(C)nc4C)cc3)C2)cc1"
testvalue = 3.00

[[record]]
compound = "CCOc1c(F)cc(OC2CN(c3ccc([C@H](C)NC(=O)C4CC4)cc3)C2)cc1F"
testvalue = 3.19


Here's the next entry for you.
Input line: Give log10(IC50) for the following compound: `CC(=O)N[C@@H](C)c1ccc(N2CC(Oc3cc(OCc4ccccc4)ccn3)C2)cc1`
Output line: 3.35
